- target_entity: CCK-B (Cavia porcellus, UniProt H0VZC5)
- Construct: guinea pig brain (CCK-B); from tissue; host or cells: guinea pig brain
- Sequence (H0VZC5 1-426): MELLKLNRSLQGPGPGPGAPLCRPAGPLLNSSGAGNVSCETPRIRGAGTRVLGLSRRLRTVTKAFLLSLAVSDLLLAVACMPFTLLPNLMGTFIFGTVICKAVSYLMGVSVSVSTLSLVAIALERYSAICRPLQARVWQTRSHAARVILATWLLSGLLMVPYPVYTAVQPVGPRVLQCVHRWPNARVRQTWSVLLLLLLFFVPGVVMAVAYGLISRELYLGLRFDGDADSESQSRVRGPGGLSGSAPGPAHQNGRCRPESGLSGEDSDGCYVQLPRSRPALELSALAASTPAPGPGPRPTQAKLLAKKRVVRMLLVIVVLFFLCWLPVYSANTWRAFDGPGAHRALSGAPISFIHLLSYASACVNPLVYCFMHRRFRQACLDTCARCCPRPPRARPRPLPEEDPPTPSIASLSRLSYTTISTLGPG
- assay_notes: displacement of specific 125I-CCK from guinea pig brain (CCK-B receptor binding)
- details: read-out: CCK RECEPTOR BINDING RESULTS IC50 125I-CCK Brain
pIC50: −log10 of the molar value. Structures can show the parent of a compound that is named as a salt.
measured_property: pIC50

{"columns": ["molecule", "target_entity", "measured_property", "experimental_value"],
 "data": [
  ["Cc1cccc(NC(=O)NC2N=C(N3CCC(C)(C)CC3)c3ccccc3N(CC(F)(F)F)C2=O)c1 (racemic) [Example 27]", "CCK-B (Cavia porcellus, UniProt H0VZC5)", "pIC50", 7.48],
  ["CCCN1C(=O)C(NC(=O)Nc2cccc(C)c2)N=C(N2CCC3(CC2)OCCO3)c2ccccc21 (racemic)", "CCK-B (Cavia porcellus, UniProt H0VZC5)", "pIC50", 7.83],
  ["Cc1cccc(NC(=O)NC2N=C(N3CCC(C)(C)CC3)c3ccccc3N(C)C2=O)c1 (single isomer, unassigned) [10 (enantiomer A)]", "CCK-B (Cavia porcellus, UniProt H0VZC5)", "pIC50", 9.12],
  ["Cc1cccc(NC(=O)NC2N=C(N(C)CCN3CCOCC3)c3ccccc3N(C)C2=O)c1 (racemic)", "CCK-B (Cavia porcellus, UniProt H0VZC5)", "pIC50", 6.11],
  ["CCCN1C(=O)C(NC(=O)Nc2cccc(C)c2)N=C(N2CCC(C)CC2)c2ccccc21 (single isomer, unassigned) [18 (enantiomer A)]", "CCK-B (Cavia porcellus, UniProt H0VZC5)", "pIC50", 9.19],
  ["CCCN(CCC)C1=NC(NC(=O)Nc2cccc(C)c2)C(=O)N(C)c2ccccc21 (racemic)", "CCK-B (Cavia porcellus, UniProt H0VZC5)", "pIC50", 7.33],
  ["COC1CCN(C2=NC(NC(=O)Nc3cccc(C)c3)C(=O)N(C)c3ccccc32)CC1 (single isomer, unassigned) [14 (enantiomer A)]", "CCK-B (Cavia porcellus, UniProt H0VZC5)", "pIC50", 7.94],
  ["CCCN1C(=O)C(NC(=O)Nc2cccc(C)c2)N=C(N2CCC(NCC(F)(F)F)CC2)c2ccccc21 (racemic)", "CCK-B (Cavia porcellus, UniProt H0VZC5)", "pIC50", 7.94],
  ["COC1CCN(C2=NC(NC(=O)Nc3cccc(C)c3)C(=O)N(C)c3ccccc32)CC1 (single isomer, unassigned) [14 (enantiomer B)]", "CCK-B (Cavia porcellus, UniProt H0VZC5)", "pIC50", 6.76],
  ["Cc1cccc(NC(=O)NC2N=C(NCCN(C)C)c3ccccc3N(C)C2=O)c1 (racemic) [Example 84, dihydrochloride]", "CCK-B (Cavia porcellus, UniProt H0VZC5)", "pIC50", 5.72],
  ["CCCN1C(=O)C(NC(=O)Nc2cccc(C)c2)N=C(N2CCC(=O)CC2)c2ccccc21 (racemic)", "CCK-B (Cavia porcellus, UniProt H0VZC5)", "pIC50", 8.69]
]}

----------
- target_entity: CCK-A (Rattus norvegicus, UniProt P30551)
- Sequence (P30551 whole entry): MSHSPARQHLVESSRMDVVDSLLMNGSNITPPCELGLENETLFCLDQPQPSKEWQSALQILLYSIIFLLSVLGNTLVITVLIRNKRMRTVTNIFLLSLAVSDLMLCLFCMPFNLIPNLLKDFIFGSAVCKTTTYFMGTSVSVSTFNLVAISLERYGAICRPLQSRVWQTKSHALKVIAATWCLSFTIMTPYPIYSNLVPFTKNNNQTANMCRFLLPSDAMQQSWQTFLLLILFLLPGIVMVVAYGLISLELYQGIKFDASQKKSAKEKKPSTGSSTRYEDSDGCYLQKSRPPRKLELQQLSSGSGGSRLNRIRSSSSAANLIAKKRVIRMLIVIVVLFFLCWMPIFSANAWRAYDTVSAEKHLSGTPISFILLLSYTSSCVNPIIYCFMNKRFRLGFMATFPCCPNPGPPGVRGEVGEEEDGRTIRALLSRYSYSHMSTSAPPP
- assay_notes: biochemical
- Format: binding
- details: rat pancreas (CCK-A), 125I-CCK; read-out: CCK RECEPTOR BINDING RESULTS IC50 125I-CCK Pancreas
Where a name gives a salt, the structure may show the parent alone.

{"columns": ["molecule", "bound_operator", "IC50 / nM"],
 "data": [
  ["CCCN1C(=O)C(NC(=O)Nc2cccc(C)c2)N=C(N2CC3CCC(C2)N3C)c2ccccc21 (racemic)", ">", 3000],
  ["CCCN1C(=O)C(NC(=O)Nc2cccc(C)c2)N=C(N(C)C2CCCCC2)c2ccccc21 (racemic) [Example 60]", "=", 186],
  ["Cc1cccc(NC(=O)NC2N=C(N3C[C@H]4CCCC[C@H]4C3)c3ccccc3N(C)C2=O)c1 (relative stereo)", "=", 12.3],
  ["CN1C(=O)C(NC(=O)Nc2cccc(C(F)(F)F)c2)N=C(N2CC3CCC(CC3)C2)c2ccccc21 (single isomer, unassigned; (-)) [Example 55, Hydrochloride]", ">", 3000]
]}
